Each entry below carries its recorded MIC50.
System: Vaccinia virus
Method summary: Antiviral activity against vaccinia virus
Assay type: functional
Reported conditions: Orthopoxvirus vaccinia
Use µg/mL as the unit, but write only the number.

Known MIC50 results, listed for orientation:
[
  {
    "Smiles notation": "CCc1cn([C@H]2C[C@H](O)[C@@H](CO)O2)c(=O)[nH]c1=O",
    "Measured on": "Vaccinia virus",
    "MIC50 [µg/mL]": 0.7
  },
  {
    "Smiles notation": "CCCCCCCCc1cn([C@H]2C[C@@H]3OP(=O)(O)OC[C@H]3O2)c(=O)[nH]c1=O.N",
    "Measured on": "Vaccinia virus",
    "MIC50 [µg/mL]": 20
  },
  {
    "Smiles notation": "CCCCc1cn([C@H]2C[C@H](O)[C@@H](CO)O2)c(=O)[nH]c1=O",
    "Measured on": "Vaccinia virus",
    "MIC50 [µg/mL]": 300
  },
  {
    "Smiles notation": "CC(C)c1cn([C@H]2C[C@H](O)[C@@H](CO)O2)c(=O)[nH]c1=O",
    "Measured on": "Vaccinia virus",
    "MIC50 [µg/mL]": 300
  },
  {
    "Smiles notation": "CCCCCc1cn([C@H]2C[C@H](O)[C@@H](CO)O2)c(=O)[nH]c1=O",
    "Measured on": "Vaccinia virus",
    "MIC50 [µg/mL]": 300
  }
]

Qu. Query (compound): `CCCCc1cn([C@H]2C[C@@H]3OP(=O)(O)OC[C@H]3O2)c(=O)[nH]c1=O.N` ; field requested: MIC50
Ans. 300

Qu. # MIC50 lookup, item `CCCc1cn([C@H]2C[C@H](O)[C@@H](CO)O2)c(=O)[nH]c1=O`
Ans. 200

###

System: Raji
Method summary: Cytostatic activity against proliferation of Raji/0 cells
Format: functional
Reported conditions: Homo sapiens, read-out: ID50 (the source's name)
Quantity name: IC50 (µg/mL)
Field format: number, assumed µg/mL, no unit text.

Some entries whose results are on file:
[
  {
    "Smiles notation": "CCCCCCc1cn([C@H]2C[C@H](O)[C@@H](CO)O2)c(=O)[nH]c1=O",
    "IC50, µg/mL": 151
  },
  {
    "Smiles notation": "CCc1cn([C@H]2C[C@H](O)[C@@H](CO)O2)c(=O)[nH]c1=O",
    "IC50, µg/mL": 2.9
  }
]

Attention now turns to another entry.
Qu. Give recorded IC50 with Raji for the following compound: `CCc1cn([C@H]2C[C@@H]3OP(=O)(O)OC[C@H]3O2)c(=O)[nH]c1=O.N`
Ans. 60

###

System: Human alphaherpesvirus 2
Method summary: Antiviral activity against Herpes Simplex Virus-2(Lyons)
Format: functional
Quantity name: MIC50 (µg/mL)
// note: answer is a bare numeric in µg/mL

Examples with answers:
[
  {
    "Smiles notation": "CCCCc1cn([C@H]2C[C@@H]3OP(=O)(O)OC[C@H]3O2)c(=O)[nH]c1=O.N",
    "Quantity name": "MIC50",
    "Reading": 300
  },
  {
    "Smiles notation": "CCCCCCc1cn([C@H]2C[C@@H]3OP(=O)(O)OC[C@H]3O2)c(=O)[nH]c1=O.N",
    "Quantity name": "MIC50",
    "Reading": 300
  },
  {
    "Smiles notation": "CC(C)c1cn([C@H]2C[C@H](O)[C@@H](CO)O2)c(=O)[nH]c1=O",
    "Quantity name": "MIC50",
    "Reading": 100
  },
  {
    "Smiles notation": "CCc1cn([C@H]2C[C@@H]3OP(=O)(O)OC[C@H]3O2)c(=O)[nH]c1=O.N",
    "Quantity name": "MIC50",
    "Reading": 7
  },
  {
    "Smiles notation": "CCCCCc1cn([C@H]2C[C@H](O)[C@@H](CO)O2)c(=O)[nH]c1=O",
    "Quantity name": "MIC50",
    "Reading": 70
  },
  {
    "Smiles notation": "CCCc1cn([C@H]2C[C@H](O)[C@@H](CO)O2)c(=O)[nH]c1=O",
    "Quantity name": "MIC50",
    "Reading": 7
  }
]

Qu. Form field - read-out: MIC50; system: Human alphaherpesvirus 2; submitted item: `O=c1[nH]c(=O)n([C@H]2C[C@H](O)[C@@H](CO)O2)cc1/C=C/Br`
Ans. 1

###

Tested on: Raji
Method summary: Cytostatic activity against proliferation of Raji/TK cells
Type: functional
Reported conditions: Homo sapiens, read-out: ID50 (the source's name)
Quantity name: IC50 (µg/mL)
The response must be a number in µg/mL with no trailing unit.

Worked set:
[
  {
    "Smiles notation": "CCCCc1cn([C@H]2C[C@@H]3OP(=O)(O)OC[C@H]3O2)c(=O)[nH]c1=O.N",
    "IC50 (µg/mL)": 165
  },
  {
    "Smiles notation": "CCCCCCCCc1cn([C@H]2C[C@H](O)[C@@H](CO)O2)c(=O)[nH]c1=O",
    "IC50 (µg/mL)": 140
  },
  {
    "Smiles notation": "CCCCCc1cn([C@H]2C[C@H](O)[C@@H](CO)O2)c(=O)[nH]c1=O",
    "IC50 (µg/mL)": 328
  }
]

Then this molecule:
Qu. What value of IC50 has been reported for the following molecule? `CCCCCCCCc1cn([C@H]2C[C@@H]3OP(=O)(O)OC[C@H]3O2)c(=O)[nH]c1=O.N`
Ans. 184

###

System: Human alphaherpesvirus 2
Method summary: Antiviral activity against Herpes Simplex Virus-2(196)
Format: functional
Recorded MIC50 by entry

Qu. Which measured MIC50 value corresponds to `CC(C)c1cn([C@H]2C[C@H](O)[C@@H](CO)O2)c(=O)[nH]c1=O` ?
Ans. 400 µg/mL

Qu. Dear colleague, I am looking for the recorded MIC50 of the following molecule: `CCCCCCc1cn([C@H]2C[C@@H]3OP(=O)(O)OC[C@H]3O2)c(=O)[nH]c1=O.N`
Ans. > 400 µg/mL

Qu. # get_value(readout='MIC50', item= `CCc1cn([C@H]2C[C@@H]3OP(=O)(O)OC[C@H]3O2)c(=O)[nH]c1=O.N` )
Ans. 150 µg/mL

Qu. Requested field: MIC50. Item: `CC(C)c1cn([C@H]2C[C@@H]3OP(=O)(O)OC[C@H]3O2)c(=O)[nH]c1=O.N`
Ans. > 200 µg/mL

Qu. Please look up its MIC50: `CCCc1cn([C@H]2C[C@H](O)[C@@H](CO)O2)c(=O)[nH]c1=O`
Ans. 40 µg/mL

Qu. Quick one: MIC50 of `CCCCc1cn([C@H]2C[C@H](O)[C@@H](CO)O2)c(=O)[nH]c1=O` ?
Ans. > 400 µg/mL

Qu. // MIC50 lookup, key: `CCCCCc1cn([C@H]2C[C@H](O)[C@@H](CO)O2)c(=O)[nH]c1=O`
Ans. > 400 µg/mL

###

Test system: Human alphaherpesvirus 2
Method summary: Antiviral activity against Herpes Simplex Virus-2(Lyons)
Type: functional
Param label: returns 1 (yes) when MIC50 < 100 µg/mL, returns 0 (no) otherwise, including exact equality.

Qu. Identify whether the compound `CCCc1cn([C@H]2C[C@@H]3OP(=O)(O)OC[C@H]3O2)c(=O)[nH]c1=O.N` records MIC50 below 100 µg/mL.
Ans. 0 (no)

Qu. Here's an entry: `CCCCCCc1cn([C@H]2C[C@H](O)[C@@H](CO)O2)c(=O)[nH]c1=O` . Is its MIC50 below 100 µg/mL?
Ans. 0 (no)

Qu. Consider the compound `CCCCc1cn([C@H]2C[C@H](O)[C@@H](CO)O2)c(=O)[nH]c1=O` . Is its MIC50 strictly less than 100 µg/mL?
Ans. 1 (yes)

Qu. API: query returns whether the compound falls strictly under 100 µg/mL in MIC50. Query: CCc1cn([C@H]2C[C@H](O)[C@@H](CO)O2)c(=O)[nH]c1=O [EDOXUDINE]
Ans. 1 (yes)

Qu. MIC50 under 100 µg/mL? Item: `CCCCCCCCc1cn([C@H]2C[C@@H]3OP(=O)(O)OC[C@H]3O2)c(=O)[nH]c1=O.N`
Ans. 0 (no)

###

Test system: Raji
Method summary: Cytostatic activity against proliferation of Raji/TK cells
Type: functional
Reported conditions: Homo sapiens, read-out: ID50 (the source's name)
Quantity name: IC50

Example entries begin here.
[
  {
    "Smiles notation": "CC(C)c1cn([C@H]2C[C@@H]3OP(=O)(O)OC[C@H]3O2)c(=O)[nH]c1=O.N",
    "IC50": "> 500 µg/mL"
  },
  {
    "Smiles notation": "CCCc1cn([C@H]2C[C@@H]3OP(=O)(O)OC[C@H]3O2)c(=O)[nH]c1=O.N",
    "IC50": "> 500 µg/mL"
  },
  {
    "Smiles notation": "CCCCCCc1cn([C@H]2C[C@H](O)[C@@H](CO)O2)c(=O)[nH]c1=O",
    "IC50": "173 µg/mL"
  }
]

Here is another compound to look at.
Qu. Please report the recorded IC50 for `CCCc1cn([C@H]2C[C@H](O)[C@@H](CO)O2)c(=O)[nH]c1=O` .
Ans. > 500 µg/mL
